experimental.target: MET (Homo sapiens)
Sequence (P08581 25-1390): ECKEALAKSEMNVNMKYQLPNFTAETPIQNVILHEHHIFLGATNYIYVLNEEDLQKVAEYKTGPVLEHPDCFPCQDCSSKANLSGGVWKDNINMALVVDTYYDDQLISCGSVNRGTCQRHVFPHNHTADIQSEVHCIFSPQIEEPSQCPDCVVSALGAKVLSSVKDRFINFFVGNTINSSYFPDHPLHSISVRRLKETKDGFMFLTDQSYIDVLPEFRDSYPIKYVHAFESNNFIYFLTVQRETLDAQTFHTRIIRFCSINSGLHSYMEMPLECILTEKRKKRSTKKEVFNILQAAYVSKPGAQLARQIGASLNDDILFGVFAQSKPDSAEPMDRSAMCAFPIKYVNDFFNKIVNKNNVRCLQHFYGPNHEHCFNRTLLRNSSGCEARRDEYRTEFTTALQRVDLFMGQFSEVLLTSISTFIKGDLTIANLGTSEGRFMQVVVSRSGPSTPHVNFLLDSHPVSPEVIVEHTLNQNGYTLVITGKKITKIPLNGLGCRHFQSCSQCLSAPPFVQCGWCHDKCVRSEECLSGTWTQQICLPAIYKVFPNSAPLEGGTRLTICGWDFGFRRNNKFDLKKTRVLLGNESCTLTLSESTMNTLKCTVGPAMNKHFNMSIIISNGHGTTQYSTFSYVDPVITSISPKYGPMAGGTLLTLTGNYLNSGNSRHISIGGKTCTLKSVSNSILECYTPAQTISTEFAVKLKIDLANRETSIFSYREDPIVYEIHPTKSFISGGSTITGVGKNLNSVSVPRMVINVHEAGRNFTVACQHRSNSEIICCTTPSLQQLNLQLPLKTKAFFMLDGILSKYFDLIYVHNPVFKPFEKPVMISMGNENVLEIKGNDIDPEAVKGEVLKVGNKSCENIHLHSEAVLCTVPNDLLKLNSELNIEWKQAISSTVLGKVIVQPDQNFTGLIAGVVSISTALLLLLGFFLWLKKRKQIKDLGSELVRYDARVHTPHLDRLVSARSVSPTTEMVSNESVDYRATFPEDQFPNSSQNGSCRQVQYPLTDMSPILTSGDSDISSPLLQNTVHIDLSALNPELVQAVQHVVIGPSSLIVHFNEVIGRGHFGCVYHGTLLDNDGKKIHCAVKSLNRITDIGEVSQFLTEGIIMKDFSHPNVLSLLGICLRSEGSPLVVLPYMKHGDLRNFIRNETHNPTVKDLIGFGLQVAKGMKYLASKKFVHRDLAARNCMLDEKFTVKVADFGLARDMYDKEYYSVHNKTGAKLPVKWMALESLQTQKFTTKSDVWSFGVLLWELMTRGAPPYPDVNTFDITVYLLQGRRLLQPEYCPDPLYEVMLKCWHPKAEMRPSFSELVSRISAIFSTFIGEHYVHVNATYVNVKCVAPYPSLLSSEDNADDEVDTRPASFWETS
test.summary: Evaluation of inhibitory activity to MET
Type: biochemical
Description: Experimental Example 1. Evaluation of Inhibitory Activity to RON and MET
Could you please report measured IC50 for the items listed next?
Numbers only, in nM.

// solved cases for IC50 follow
• Cn1cc(-c2cc(C(=O)Nc3ccc(Oc4ccc(O)c(-c5ccnc(N)n5)c4)c(F)c3)c(=O)n(-c3ccc(F)cc3)c2)cn1 = 179
• C/C(=N\O)c1cc(Oc2ccc(NC(=O)c3ccc(C)n(-c4ccc(F)cc4)c3=O)cc2F)ccc1O = 354
• Cc1ccc(C(=O)Nc2ccc(Oc3ccc(O)c(-c4cc[nH]n4)c3)c(F)c2)c(=O)n1-c1ccc(F)cc1 = 99
• Nc1nccc(-c2cc(Oc3ccc(NC(=O)c4cccn(-c5ccc(F)cc5)c4=O)cc3F)ccc2O)n1 = 54
• Cc1c(C(=O)Nc2ccc(Oc3ccc(O)c(-c4ccnc(N)n4)c3)c(F)c2)c(=O)n(-c2ccccc2)n1CC(C)(C)O = 115
• Nc1nccc(-c2cc(-c3ccc(NC(=O)c4cc(C5CC5)cn(-c5ccc(F)cc5)c4=O)cc3F)ccc2O)n1 = 2090

Please find the next molecule below.
What does the data say about its IC50? Entry: CCOc1ccn(-c2ccc(F)cc2)c(=O)c1C(=O)Nc1ccc(-c2ccc(O)c(-c3ccnc(N)n3)c2)c(F)c1
612

Where do these numbers come from? They come from patent US20240150325A1.
